target: Hsp90β (Homo sapiens); assay: FP competition binding assay, Hsp90β; settings: read-out: IC50 Hsp90β; FP competition, Cy3B-GM probe
Sequence (P08238 whole entry): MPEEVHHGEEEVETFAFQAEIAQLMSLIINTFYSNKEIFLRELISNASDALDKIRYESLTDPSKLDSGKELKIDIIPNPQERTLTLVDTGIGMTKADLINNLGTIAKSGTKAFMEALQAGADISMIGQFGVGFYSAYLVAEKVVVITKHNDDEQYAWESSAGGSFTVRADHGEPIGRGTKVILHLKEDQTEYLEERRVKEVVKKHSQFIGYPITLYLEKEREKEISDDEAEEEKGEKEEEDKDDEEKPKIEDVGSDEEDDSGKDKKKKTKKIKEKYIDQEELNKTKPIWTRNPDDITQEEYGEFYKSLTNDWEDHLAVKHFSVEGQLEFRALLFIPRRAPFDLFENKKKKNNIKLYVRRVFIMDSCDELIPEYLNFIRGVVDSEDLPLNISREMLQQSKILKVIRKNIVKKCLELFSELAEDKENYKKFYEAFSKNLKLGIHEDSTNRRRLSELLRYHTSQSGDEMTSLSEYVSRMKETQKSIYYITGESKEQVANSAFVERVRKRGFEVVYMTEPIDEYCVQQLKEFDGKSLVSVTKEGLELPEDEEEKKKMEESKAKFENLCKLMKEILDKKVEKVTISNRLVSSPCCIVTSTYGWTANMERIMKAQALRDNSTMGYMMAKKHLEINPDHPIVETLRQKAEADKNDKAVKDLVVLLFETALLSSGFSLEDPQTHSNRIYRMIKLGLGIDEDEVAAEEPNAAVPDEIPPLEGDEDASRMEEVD
REPORTED METRIC: IC50

> print(dat)
                                smiles.data        target.of.assay  data.value
1  C#CCCCn1cnc(N)c2nc(Sc3cc(Cl)cc(Cl)c3)nc1-2  Hsp90β (Homo sapiens)    > 100 µM

====

target: Grp94 (Canis lupus familiaris, UniProt P41148); assay: FP competition binding assay, Grp94; set-up: species or system Canine
Sequence (P41148 22-804): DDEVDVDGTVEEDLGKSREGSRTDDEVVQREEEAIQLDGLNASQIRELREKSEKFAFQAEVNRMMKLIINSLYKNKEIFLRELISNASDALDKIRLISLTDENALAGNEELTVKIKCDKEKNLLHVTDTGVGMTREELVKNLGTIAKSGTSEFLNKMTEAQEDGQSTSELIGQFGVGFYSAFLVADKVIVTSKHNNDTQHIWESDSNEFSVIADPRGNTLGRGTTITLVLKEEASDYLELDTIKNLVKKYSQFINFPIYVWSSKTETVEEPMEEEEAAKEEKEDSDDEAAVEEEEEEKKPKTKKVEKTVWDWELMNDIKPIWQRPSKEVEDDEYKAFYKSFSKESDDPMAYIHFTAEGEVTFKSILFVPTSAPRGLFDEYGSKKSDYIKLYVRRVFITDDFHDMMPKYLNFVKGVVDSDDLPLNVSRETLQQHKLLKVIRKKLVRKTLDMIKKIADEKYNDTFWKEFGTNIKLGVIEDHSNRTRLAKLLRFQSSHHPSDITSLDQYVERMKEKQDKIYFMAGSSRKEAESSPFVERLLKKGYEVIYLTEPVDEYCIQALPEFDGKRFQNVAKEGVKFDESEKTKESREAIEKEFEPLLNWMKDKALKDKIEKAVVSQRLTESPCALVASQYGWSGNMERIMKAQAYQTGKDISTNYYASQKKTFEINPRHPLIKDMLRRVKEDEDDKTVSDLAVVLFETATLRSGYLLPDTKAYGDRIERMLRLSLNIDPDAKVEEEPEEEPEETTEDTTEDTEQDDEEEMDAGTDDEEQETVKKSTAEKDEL
pIC50: −log10 of the molar value.
REPORTED METRIC: pIC50

> print(dat)
                                    molecule  reported.metric  reading.qualifier  data.value
 1  C#CCCCn1cnc(N)c2nc(Sc3ccccc3CO)nc1-2 [9c′]            pIC50                  <        4.00
 2  C#CCCCn1cnc(N)c2nc(Sc3c(C)cc(C)cc3C)nc1-2 [9w′]            pIC50                  =        4.70
 3  C#CCCCn1cnc(N)c2nc(Sc3ccccc3OC)nc1-2 [9b′]            pIC50                  <        4.00
 4  C#CCCCn1cnc(N)c2nc(Sc3ccccc3OC(F)(F)F)nc1-2 [9d′]            pIC50                  <        4.00
 5  C#CCCCn1cnc(N)c2nc(Sc3cc(C)cc(C)c3)nc1-2 [9q′]            pIC50                  <        4.00
 6  C#CCCCn1cnc(N)c2nc(Sc3cc(Cl)ccc3Cl)nc1-2 [9k′]            pIC50                  =        4.45
 7  C#CCCCn1cnc(N)c2nc(Sc3cc(C(F)(F)F)ccc3Cl)nc1-2 [9m′]            pIC50                  <        4.00
 8  C#CCCCn1cnc(N)c2nc(Sc3cc(Cl)c(Cl)cc3Cl)nc1-2 [9v′]            pIC50                  =        5.68
 9  C#CCCCn1cnc(N)c2nc(Sc3cc(C)ccc3C)nc1-2 [9l′]            pIC50                  <        4.00
10  C#CCCCn1cnc(N)c2nc(Sc3ccc(Cl)cc3Cl)nc1-2 [9g′]            pIC50                  =        5.63
11  C#CCCCn1cnc(N)c2nc(Sc3ccccc3Cl)nc1-2 [9a′]            pIC50                  =        4.00
12  C#CCCCn1cnc(N)c2nc(Sc3ccc(OC)cc3OC)nc1-2 [9j′]            pIC50                  <        4.00

====

biological target: Hsp90α (Homo sapiens, UniProt P07900); experiment: FP competition binding assay, Hsp90α
Measured IC50, listed per entry for reference.
REPORTED METRIC: IC50

> print(dat)
                                smiles.data  data.value
1  C#CCCCn1cnc(N)c2nc(Sc3cc(C(F)(F)F)ccc3Cl)nc1-2    > 100 µM
2    C#CCCCn1cnc(N)c2nc(Sc3ccc(C)cc3C)nc1-2    > 250 µM

Hello, the source for this data is paper PMC4518544, in case you need it.
